FYI, the data here is from the supplement of paper PMC9112550.

- Test system: Escherichia coli TOP10
- protocol: shrunken log2 fold change of peptide-encoding DNA abundance (4.5 h post-induction vs induction); higher = less antimicrobial activity (less host growth inhibition)
- testContext: time post-induction: 4.5 h; library: site-saturation at positions 5, 18, 19, 20
Items are presented alongside their recorded shrunken log2 fold change.
Respond using a number only.

Some sequences with recorded shrunken log2 fold change:
RRIRERPPRLPRPRPRPLAYPRP: -0.203
RRIRCRPPRLPRPRPRPEPCPRP: -0.0257

Exam item: shrunken log2 fold change of RRIRGRPPRLPRPRPRPKMDPRP on Escherichia coli TOP10?
Marked response: 0.738

Exam item: Again, but for RRIRWRPPRLPRPRPRPYKHPRP
Marked response: -1.24

Exam item: Again, but for RRIRERPPRLPRPRPRPVYTPRP
Marked response: -0.146

Exam item: Again, but for RRIRTRPPRLPRPRPRPLHQPRP
Marked response: 0.0302

Exam item: Again, but for RRIRTRPPRLPRPRPRPEPYPRP
Marked response: 0.0261

Exam item: Again, but for RRIRHRPPRLPRPRPRPSLDPRP
Marked response: -0.22

* * *

- Test system: Escherichia coli TOP10
- protocol: shrunken log2 fold change of peptide-encoding DNA abundance (4.5 h post-induction vs induction); higher = less antimicrobial activity (less host growth inhibition)
- testContext: time post-induction: 4.5 h; library: site-saturation at positions 5, 18, 19, 20
Class T: shrunken log2 fold change at least 0.09. Class F: shrunken log2 fold change below 0.09.

Before answering, review these 3 worked examples.
RRIRSRPPRLPRPRPRPPFTPRP: F
RRIRRRPPRLPRPRPRPMNSPRP: F
RRIRWRPPRLPRPRPRPNIKPRP: F

From here, focus on the item given below.
Exam item: Identify whether the reported shrunken log2 fold change of the following sequence is 0.09 or greater: RRIRSRPPRLPRPRPRPYWTPRP
Marked response: F

* * *

- System: Escherichia coli TOP10;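 further: peptides expressed intracellularly from a pBAD plasmid library in pooled LB shake-flask culture, induced with 0.3% L-arabinose, DNA abundance read by NGS, three biological replicates, DESeq2 with apeglm shrinkage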
- protocol: shrunken log2 fold change of peptide-encoding DNA abundance (4.5 h post-induction vs induction); higher = less antimicrobial activity (less host growth inhibition)
- testContext: time post-induction: 4.5 h; library: site-saturation at positions 5, 18, 19, 20
Class criterion met: shrunken log2 fold change at least -0.1. Class criterion not met: shrunken log2 fold change below -0.1.

Before answering, review these 10 worked examples.
RRIRKRPPRLPRPRPRPQVGPRP: criterion met
RRIRKRPPRLPRPRPRPEFEPRP: criterion met
RRIRFRPPRLPRPRPRPDEEPRP: criterion met
RRIRYRPPRLPRPRPRPDNKPRP: criterion not met
RRIRVRPPRLPRPRPRPMIQPRP: criterion not met
RRIRLRPPRLPRPRPRPNSEPRP: criterion met
RRIRHRPPRLPRPRPRPMSIPRP: criterion met
RRIRHRPPRLPRPRPRPQSMPRP: criterion not met
RRIRERPPRLPRPRPRPYLWPRP: criterion not met
RRIRDRPPRLPRPRPRPRFVPRP: criterion met

Exam item: Identify whether the reported shrunken log2 fold change of the following sequence is -0.1 or greater: RRIRNRPPRLPRPRPRPREMPRP
Marked response: criterion met

Exam item: Again, but for RRIRTRPPRLPRPRPRPNLHPRP
Marked response: criterion not met

Exam item: Again, but for RRIRRRPPRLPRPRPRPPDMPRP
Marked response: criterion met

Exam item: Again, but for RRIRMRPPRLPRPRPRPAVRPRP
Marked response: criterion met

Exam item: Again, but for RRIRPRPPRLPRPRPRPICQPRP
Marked response: criterion met

Exam item: Again, but for RRIRNRPPRLPRPRPRPWFIPRP
Marked response: criterion not met

Exam item: Again, but for RRIRGRPPRLPRPRPRPIFDPRP
Marked response: criterion met

Exam item: Again, but for RRIRFRPPRLPRPRPRPVRSPRP
Marked response: criterion met

Exam item: Again, but for RRIRSRPPRLPRPRPRPPRFPRP
Marked response: criterion met

Exam item: Again, but for RRIRSRPPRLPRPRPRPFMPPRP
Marked response: criterion not met

Exam item: Again, but for RRIRFRPPRLPRPRPRPYVEPRP
Marked response: criterion not met

Exam item: Again, but for RRIRPRPPRLPRPRPRPQIKPRP
Marked response: criterion not met
